assay: Pharmacokinetics of AT and NT in healthy volunteers after a single dose of 25 mg amitriptyline; assay type: in vivo, human; details: both sexes, human, plasma, po, 25 mg, healthy volunteers, single oral 25 mg AT, plasma; 2 active OCT1 alleles (n = 14); read-out: AUC48h
readoutName: AUC(0-t) (ng·h/mL)
One number for each entry, in ng·h/mL.

querysmiles=CN(C)CCC=C1c2ccccc2CCc2ccccc21 unitofmeasurement=ng·h/mL quantitativereadout=194

For CNCCC=C1c2ccccc2CCc2ccccc21 , what is its reported AUC(0-t)?
126

====

test: Pharmacokinetics of AT and NT in healthy volunteers after a single dose of 25 mg amitriptyline; type: in vivo, human; details: both sexes, human, plasma, po, 25 mg, healthy volunteers, single oral 25 mg AT; OCT1 genotype *2 / *2 (n 3); mean ± standard deviation; read-out: AUC48h
readoutName: AUC(0-t)

For CNCCC=C1c2ccccc2CCc2ccccc21 , what is its reported AUC(0-t)?
109 ng·h/mL

====

assay: Pharmacokinetics of AT and NT in healthy volunteers after a single dose of 25 mg amitriptyline; format: in vivo, human; details: both sexes, human, plasma, po, 25 mg, healthy volunteers, single oral 25 mg AT; OCT1 genotype *2 / *3 (n 4); mean ± standard deviation; read-out: AUC48h
readoutName: AUC(0-t)

For CNCCC=C1c2ccccc2CCc2ccccc21 [Nortriptyline, nortriptyline] , what is its reported AUC(0-t)?
0.09 µg·h/mL

====

What Cmax was measured for each of the following?
Test: Pharmacokinetics of AT and NT in healthy volunteers after a single dose of 25 mg amitriptyline
Assay type: in vivo, human
Settings: both sexes, human, plasma, po, 25 mg, healthy volunteers, single oral 25 mg AT, plasma; 1 active OCT1 allele (n = 9); read-out: Cmax
Method: In order to enrich the study sample with the less frequent functionally deficient OCT1 variants, participants were selected based on OCT1 genotype from an internal database at the Institute of Clinical Pharmacology of the University Medical Center Göttingen. […] The lower limit of quantification was 0.5 ng/ml for AT and 0.1 ng/ml for NT. […] Pharmacokinetic parameters were calculated by non-compartmental analysis using Phoenix 64 WinNonlin version 6.3 (Certara Inc., Princeton, NJ, United States). […]
Answer as a quantity: numeral, then unit.

molecule="CNCCC=C1c2ccccc2CCc2ccccc21 [Nortriptyline, nortriptyline]" readoutname=Cmax result="2.6 ng/mL"

For CN(C)CCC=C1c2ccccc2CCc2ccccc21 [Amitriptyline, amitriptyline] , what is its reported Cmax?
10.5 ng/mL

====

assay: Pharmacokinetics of AT and NT in healthy volunteers after a single dose of 25 mg amitriptyline; type: in vivo, human; conditions: both sexes, human, plasma, po, 25 mg, 35 healthy volunteers, single oral 25 mg AT; read-out: AUC48h (range over all volunteers)
readoutName: AUC(0-t)

For CNCCC=C1c2ccccc2CCc2ccccc21 , what is its reported AUC(0-t)?
39.3 to 284 ng·h/mL

====

assay: Pharmacokinetics of AT and NT in healthy volunteers after a single dose of 25 mg amitriptyline; format: in vivo, human; details: both sexes, human, plasma, po, 25 mg, healthy volunteers, single oral 25 mg AT; read-out: average Cmax
readoutName: Cmax (nM)
Numbers only, in nM.

For CN(C)CCC=C1c2ccccc2CCc2ccccc21 [Amitriptyline, amitriptyline] , what is its reported Cmax?
39

====

Test: Pharmacokinetics of AT and NT in healthy volunteers after a single dose of 25 mg amitriptyline
Format: in vivo, human
Details: both sexes, human, plasma, po, 25 mg, healthy volunteers, single oral 25 mg AT; CYP2D6 activity 3 (n = 2); mean
Experimental: In order to enrich the study sample with the less frequent functionally deficient OCT1 variants, participants were selected based on OCT1 genotype from an internal database at the Institute of Clinical Pharmacology of the University Medical Center Göttingen. […] The lower limit of quantification was 0.5 ng/ml for AT and 0.1 ng/ml for NT. […] Pharmacokinetic parameters were calculated by non-compartmental analysis using Phoenix 64 WinNonlin version 6.3 (Certara Inc., Princeton, NJ, United States). […]
readoutName: Tmax

querysmiles=CNCCC=C1c2ccccc2CCc2ccccc21 result="6 h"

Now turn to the next molecule.
For CN(C)CCC=C1c2ccccc2CCc2ccccc21 , what is its reported Tmax?
2 h

====

assay: Pharmacokinetics of AT and NT in healthy volunteers after a single dose of 25 mg amitriptyline; format: in vivo, human; settings: both sexes, human, plasma, po, 25 mg, healthy volunteers, single oral 25 mg AT, plasma; CYP2C19 activity score 2.5 (n = 10); mean; read-out: Cmax
readoutName: Cmax (ng/mL)
One number for each entry, in ng/mL.

querysmiles=CNCCC=C1c2ccccc2CCc2ccccc21 readoutname=Cmax quantitativereadout=3.1

Now turn to the next compound.
For CN(C)CCC=C1c2ccccc2CCc2ccccc21 , what is its reported Cmax?
9.5
